# Assayed system: LAP2, Q96RT1
# Sequence (Q96RT1 other isoform, or with tags, fused parts or gaps): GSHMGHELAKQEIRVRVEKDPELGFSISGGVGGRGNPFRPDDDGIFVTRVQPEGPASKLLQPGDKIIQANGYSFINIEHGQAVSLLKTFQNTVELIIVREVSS
# Experiment: holdup assay
# Set-up: key: below the threshold = too weak to quantify, mostly under pKd 3.1 to 4
# Assay conditions: plain residues with an end cap or a label only (N-terminal biotin on a linker: ahx)
Measurement kind: pKd

Binder	Measurement kind	Reported value
QDEKVKESYV [ABCA1, O95477]	pKd	4.41
TESNLQTSSC [CGN, Q9P2M7]	pKd	below the threshold
QPRTWLQSPV [RTKN, Q9BST9]	pKd	4.42
TEAKLTETNA [MYO18A, Q92614]	pKd	below the threshold
TQKFRASTAL [FRMPD1, Q5SYB0]	pKd	below the threshold
QNTDDVQTSF [ACE2, Q9BYF1]	pKd	below the threshold
HTHSYIETHV [CNKSR2, Q8WXI2]	pKd	5.51
APSRKLNTEI [TIAM1, Q13009]	pKd	below the threshold
EKQAKGDTEF [CACYBP, Q9HB71]	pKd	below the threshold
